experiment: physchem; assay type: physicochemical; settings: 25 °C, pH 4.6, aqueous buffer, thermodynamic from solid
reportedMetric: solubility at 3 h (µg/mL)

molecule | reportedMetric | unitOfMeasurement | endpointResult
CO[C@H]1C[C@@H]2CC[C@@H](C)[C@@](O)(O2)C(=O)C(=O)N2CCCC[C@H]2C(=O)O[C@H]([C@H](C)C[C@@H]2CC[C@@H](OC(=O)C(C)(CO)CO)[C@H](OC)C2)CC(=O)[C@H](C)/C=C(\C)[C@@H](O)[C@@H](OC)C(=O)[C@H](C)C[C@H](C)/C=C/C=C/C=C/1C [Crystalline, reference compound] | solubility at 3 h | µg/mL | 0.29

Hey, just so you know, these numbers are from patent US7446111B2.
